B1: Gamma-crystallin D, residues 90 to 170; numbered along this chain, P07320 (parent)
chain: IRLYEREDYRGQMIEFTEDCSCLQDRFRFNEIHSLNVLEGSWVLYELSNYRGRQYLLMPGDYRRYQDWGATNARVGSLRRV

# Variants of: B1
# assay comment: abundance fitness (aPCA) (normalised: wild type 0, dead -1); higher = more abundant; growth selection in yeast, the domain comes from the species named
# condition set: Homo sapiens

{"columns": ["mutation id", "abundance fitness"],
 "data": [
  ["E18N", 0.11],
  ["Y45D", -1.01],
  ["C22R", -0.044],
  ["L44P", -1.04],
  ["E7R", -0.043],
  ["C20I", -0.047],
  ["S21M", -0.171],
  ["G52S", -0.389],
  ["L38S", -0.065],
  ["L57H", 0.049],
  ["H33A", 0.039],
  ["Q54A", -0.119],
  ["R51Q", -0.132],
  ["R28T", -0.002],
  ["L35I", 0.231],
  ["R10S", -0.138],
  ["R28S", 0.024],
  ["Q54W", -0.39],
  ["V43T", -0.113],
  ["L38G", 0.016],
  ["R26S", 0.05]
]}
